Target: T1, 4H462-bH
T1 chain: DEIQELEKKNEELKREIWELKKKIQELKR
Assay: two-hybrid library CCNG1;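 also: natural log of median RNA to DNA barcode read ratio; higher means stronger binding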
Consider the following binders and their measured interaction score readings.

{"binder": "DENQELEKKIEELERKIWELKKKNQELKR [4H1328-bH]", "interaction score": 0}
{"binder": "DKIQELKKENEELEREIWELKKEIQELER [4H2697-bH]", "interaction score": -0.915}
{"binder": "DKNQELKKENEELKREIWELEKKIQELKR [4H3782-bH]", "interaction score": 1.71}
{"binder": "DEIQELEKKNEELKREIWELKKKIQELKR [4H462-bH]", "interaction score": 0.452}
{"binder": "DKNQELEKEIEELKRKNWELEKKIQELER [4H3189-bH]", "interaction score": -0.167}
{"binder": "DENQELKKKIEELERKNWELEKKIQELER [4H1845-bH]", "interaction score": -0.599}
